Data provenance: the supplement of paper PMC8617591

test system: Mycobacterium tuberculosis Erdman (autoluminescent); test: Einf, fitted maximum growth inhibition of combination (fraction); higher = stronger maximal inhibition; conditions: in vitro model: cholesterol-high 0.2 mM; time point: constant (~7 days, model-specific)
Form field: Einf (one value per entry).
Format: numeric value only, no unit, no commentary.

A selection of reference data follows.
1) CO[C@H]1/C=C/O[C@@]2(C)Oc3c(C)c(O)c4c(O)c(c(/C=N/N5CCN(C6CCCC6)CC5)c(O)c4c3C2=O)NC(=O)/C(C)=C\C=C\[C@H](C)[C@H](O)[C@@H](C)[C@@H](O)[C@@H](C)[C@H](OC(C)=O)[C@@H]1C [rifapentine] + CO[C@H]1/C=C/O[C@@]2(C)Oc3c(C)c(O)c4c(O)c(c(/C=N/N5CCN(C)CC5)c(O)c4c3C2=O)NC(=O)/C(C)=C\C=C\[C@H](C)[C@H](O)[C@@H](C)[C@@H](O)[C@@H](C)[C@H](OC(C)=O)[C@@H]1C [rifampicin]	0.921
2) NNC(=O)c1ccncc1 [isoniazid] + CO[C@H]1/C=C/O[C@@]2(C)Oc3c(C)c(O)c4c(O)c(c(/C=N/N5CCN(C)CC5)c(O)c4c3C2=O)NC(=O)/C(C)=C\C=C\[C@H](C)[C@H](O)[C@@H](C)[C@@H](O)[C@@H](C)[C@H](OC(C)=O)[C@@H]1C [rifampicin]	0.91
3) O=[N+]([O-])c1cn2c(n1)OC[C@@H](OCc1ccc(OC(F)(F)F)cc1)C2 [pretomanid] + NC(=O)c1cnccn1 [pyrazinamide]	0.886

// next entry
Q: Given NNC(=O)c1ccncc1 [isoniazid] + CO[C@H]1/C=C/O[C@@]2(C)Oc3c(C)c(O)c4c(O)c(c(/C=N/N5CCN(C6CCCC6)CC5)c(O)c4c3C2=O)NC(=O)/C(C)=C\C=C\[C@H](C)[C@H](O)[C@@H](C)[C@@H](O)[C@@H](C)[C@H](OC(C)=O)[C@@H]1C [rifapentine] , state its recorded Einf.
A: 0.937

---

Form field: Einf (one value per entry).
system: Mycobacterium tuberculosis Erdman (autoluminescent); assay: Einf, fitted maximum growth inhibition of three-drug combination (fraction); higher = stronger maximal inhibition; details: in vitro model: cholesterol 0.05 mM; time point: constant (~7 days, model-specific)
Format: numeric value only, no unit, no commentary.

1) COc1nc2ccc(Br)cc2cc1[C@@H](c1ccccc1)[C@@](O)(CCN(C)C)c1cccc2ccccc12 [bedaquiline] + COc1c(N2C[C@@H]3CCCN[C@@H]3C2)c(F)cc2c(=O)c(C(=O)O)cn(C3CC3)c12 [moxifloxacin] + CO[C@H]1/C=C/O[C@@]2(C)Oc3c(C)c(O)c4c(O)c(c(/C=N/N5CCN(C)CC5)c(O)c4c3C2=O)NC(=O)/C(C)=C\C=C\[C@H](C)[C@H](O)[C@@H](C)[C@@H](O)[C@@H](C)[C@H](OC(C)=O)[C@@H]1C [rifampicin]	0.745
2) COc1nc2ccc(Br)cc2cc1[C@@H](c1ccccc1)[C@@](O)(CCN(C)C)c1cccc2ccccc12 [bedaquiline] + CC[C@@H](CO)NCCN[C@@H](CC)CO [ethambutol] + COc1c(N2C[C@@H]3CCCN[C@@H]3C2)c(F)cc2c(=O)c(C(=O)O)cn(C3CC3)c12 [moxifloxacin]	0.746
3) CC(C)/N=c1\cc2n(-c3ccc(Cl)cc3)c3ccccc3nc-2cc1Nc1ccc(Cl)cc1 [clofazimine] + COc1c(N2C[C@@H]3CCCN[C@@H]3C2)c(F)cc2c(=O)c(C(=O)O)cn(C3CC3)c12 [moxifloxacin] + NC(=O)c1cnccn1 [pyrazinamide]	0.646
4) CC(C)/N=c1\cc2n(-c3ccc(Cl)cc3)c3ccccc3nc-2cc1Nc1ccc(Cl)cc1 [clofazimine] + NNC(=O)c1ccncc1 [isoniazid] + COc1c(N2C[C@@H]3CCCN[C@@H]3C2)c(F)cc2c(=O)c(C(=O)O)cn(C3CC3)c12 [moxifloxacin]	0.707

Q: Item: CC[C@@H](CO)NCCN[C@@H](CC)CO [ethambutol] + O=[N+]([O-])c1cn2c(n1)OC[C@@H](OCc1ccc(OC(F)(F)F)cc1)C2 [pretomanid] + CO[C@H]1/C=C/O[C@@]2(C)Oc3c(C)c(O)c4c(O)c(c(/C=N/N5CCN(C6CCCC6)CC5)c(O)c4c3C2=O)NC(=O)/C(C)=C\C=C\[C@H](C)[C@H](O)[C@@H](C)[C@@H](O)[C@@H](C)[C@H](OC(C)=O)[C@@H]1C [rifapentine] Test system: Mycobacterium tuberculosis Erdman (autoluminescent) Read-out: Einf Value: ?
A: 0.743

Q: Item: CC[C@@H](CO)NCCN[C@@H](CC)CO [ethambutol] + COc1c(N2C[C@@H]3CCCN[C@@H]3C2)c(F)cc2c(=O)c(C(=O)O)cn(C3CC3)c12 [moxifloxacin] + NC(=O)c1cnccn1 [pyrazinamide] Test system: Mycobacterium tuberculosis Erdman (autoluminescent) Read-out: Einf Value: ?
A: 0.683

---

tested on: Mycobacterium tuberculosis Erdman (autoluminescent); experiment: AUC25, normalised area under dose response up to IC25 (three-drug combination) (fraction (0-1)); higher = more potent at low dose; conditions: in vitro model: butyrate; time point: terminal (~4-5 doublings, model-specific)
observed_property: AUC25
Format: numeric value only, no unit, no commentary.

A selection of reference data follows.
1) NNC(=O)c1ccncc1 [isoniazid] + O=[N+]([O-])c1cn2c(n1)OC[C@@H](OCc1ccc(OC(F)(F)F)cc1)C2 [pretomanid] + NC(=O)c1cnccn1 [pyrazinamide]	0.0657
2) CC[C@@H](CO)NCCN[C@@H](CC)CO [ethambutol] + CO[C@H]1/C=C/O[C@@]2(C)Oc3c(C)c(O)c4c(O)c(c(/C=N/N5CCN(C6CCCC6)CC5)c(O)c4c3C2=O)NC(=O)/C(C)=C\C=C\[C@H](C)[C@H](O)[C@@H](C)[C@@H](O)[C@@H](C)[C@H](OC(C)=O)[C@@H]1C [rifapentine] + CO[C@H]1/C=C/O[C@@]2(C)Oc3c(C)c(O)c4c(O)c(c(/C=N/N5CCN(C)CC5)c(O)c4c3C2=O)NC(=O)/C(C)=C\C=C\[C@H](C)[C@H](O)[C@@H](C)[C@@H](O)[C@@H](C)[C@H](OC(C)=O)[C@@H]1C [rifampicin]	0.0718
3) CC[C@@H](CO)NCCN[C@@H](CC)CO [ethambutol] + NNC(=O)c1ccncc1 [isoniazid] + O=[N+]([O-])c1cn2c(n1)OC[C@@H](OCc1ccc(OC(F)(F)F)cc1)C2 [pretomanid]	0.0496
4) COc1nc2ccc(Br)cc2cc1[C@@H](c1ccccc1)[C@@](O)(CCN(C)C)c1cccc2ccccc12 [bedaquiline] + CC(C)/N=c1\cc2n(-c3ccc(Cl)cc3)c3ccccc3nc-2cc1Nc1ccc(Cl)cc1 [clofazimine] + CC[C@@H](CO)NCCN[C@@H](CC)CO [ethambutol]	0.0476
5) CC[C@@H](CO)NCCN[C@@H](CC)CO [ethambutol] + CC(=O)NC[C@H]1CN(c2ccc(N3CCOCC3)c(F)c2)C(=O)O1 [linezolid] + COc1c(N2C[C@@H]3CCCN[C@@H]3C2)c(F)cc2c(=O)c(C(=O)O)cn(C3CC3)c12 [moxifloxacin]	0.0678

Q: Given CC[C@@H](CO)NCCN[C@@H](CC)CO [ethambutol] + CC(=O)NC[C@H]1CN(c2ccc(N3CCOCC3)c(F)c2)C(=O)O1 [linezolid] + CO[C@H]1/C=C/O[C@@]2(C)Oc3c(C)c(O)c4c(O)c(c(/C=N/N5CCN(C)CC5)c(O)c4c3C2=O)NC(=O)/C(C)=C\C=C\[C@H](C)[C@H](O)[C@@H](C)[C@@H](O)[C@@H](C)[C@H](OC(C)=O)[C@@H]1C [rifampicin] , state its recorded AUC25.
A: 0.0538

Q: Given CC(=O)NC[C@H]1CN(c2ccc(N3CCOCC3)c(F)c2)C(=O)O1 [linezolid] + O=[N+]([O-])c1cn2c(n1)OC[C@@H](OCc1ccc(OC(F)(F)F)cc1)C2 [pretomanid] + CO[C@H]1/C=C/O[C@@]2(C)Oc3c(C)c(O)c4c(O)c(c(/C=N/N5CCN(C)CC5)c(O)c4c3C2=O)NC(=O)/C(C)=C\C=C\[C@H](C)[C@H](O)[C@@H](C)[C@@H](O)[C@@H](C)[C@H](OC(C)=O)[C@@H]1C [rifampicin] , state its recorded AUC25.
A: 0.0669

---

test system: Mycobacterium tuberculosis Erdman (autoluminescent); experiment: total FIC50 (Loewe) at 50% inhibition, three-drug combination (log2); higher = more antagonistic; details: in vitro model: valerate; time point: constant (~7 days, model-specific)
observed_property: total FIC50
Format: numeric value only, no unit, no commentary.

1) NNC(=O)c1ccncc1 [isoniazid] + CC(=O)NC[C@H]1CN(c2ccc(N3CCOCC3)c(F)c2)C(=O)O1 [linezolid] + COc1c(N2C[C@@H]3CCCN[C@@H]3C2)c(F)cc2c(=O)c(C(=O)O)cn(C3CC3)c12 [moxifloxacin]	0.337

// next entry
Q: Given COc1nc2ccc(Br)cc2cc1[C@@H](c1ccccc1)[C@@](O)(CCN(C)C)c1cccc2ccccc12 [bedaquiline] + CC[C@@H](CO)NCCN[C@@H](CC)CO [ethambutol] + CO[C@H]1/C=C/O[C@@]2(C)Oc3c(C)c(O)c4c(O)c(c(/C=N/N5CCN(C)CC5)c(O)c4c3C2=O)NC(=O)/C(C)=C\C=C\[C@H](C)[C@H](O)[C@@H](C)[C@@H](O)[C@@H](C)[C@H](OC(C)=O)[C@@H]1C [rifampicin] , state its recorded total FIC50.
A: 0.575
